- experimental details: Pharmacokinetic measurements of H3B-6527 capsules in patients (trial NCT02834780), plasma LC-MS/MS
- Format: in vivo, human
- run conditions: human, plasma, oral, 500 mg, 500 mg BID, fasted, Day 1; Table 6, actual times after QC; read-out: AUC, geometric mean (CV%)
measure: AUC (ng·h/mL)
A number alone suffices; assume ng·h/mL.

[in] // AUC lookup, key: `C=CC(=O)Nc1cc(N2CCN(CC)CC2)ccc1Nc1cc(N(C)C(=O)Nc2c(Cl)c(OC)cc(OC)c2Cl)ncn1`
[out] 292

====

- experimental details: Pharmacokinetic measurements of H3B-6527 capsules in patients (trial NCT02834780), plasma LC-MS/MS
- Assay type: in vivo, human
- run conditions: human, plasma, oral, 600 mg, 600 mg QD, fed, Day 8; Table 6, actual times after QC; read-out: Cmax, geometric mean (CV%)
measure: Cmax (µg/mL)
Please give a number only; it is taken to be in µg/mL.

[in] Which measured Cmax value corresponds to `C=CC(=O)Nc1cc(N2CCN(CC)CC2)ccc1Nc1cc(N(C)C(=O)Nc2c(Cl)c(OC)cc(OC)c2Cl)ncn1` ?
[out] 0.0996

====

- experimental details: Pharmacokinetic measurements of H3B-6527 capsules in patients (trial NCT02834780), plasma LC-MS/MS
- Assay type: in vivo, human
- run conditions: human, plasma, oral, 600 mg, 600 mg QD, fasted, Day 8; Table 6, actual times after QC; read-out: Half-life, geometric mean (CV%) (converted)
measure: half-life
Answer as a quantity: numeral, then unit.

[in] Entry `C=CC(=O)Nc1cc(N2CCN(CC)CC2)ccc1Nc1cc(N(C)C(=O)Nc2c(Cl)c(OC)cc(OC)c2Cl)ncn1` has what half-life?
[out] 7.32 h

====

- experimental details: Pharmacokinetic measurements of H3B-6527 capsules in patients (trial NCT02834780), plasma LC-MS/MS
- Format: in vivo, human
- run conditions: human, plasma, oral, 300 mg, 300 mg QD, fasted, Day 1; Table 6, actual times after QC; read-out: Cmax, geometric mean (CV%)
measure: Cmax (ng/mL)
Just the number in ng/mL, nothing appended.

[in] Any idea what Cmax was measured for `C=CC(=O)Nc1cc(N2CCN(CC)CC2)ccc1Nc1cc(N(C)C(=O)Nc2c(Cl)c(OC)cc(OC)c2Cl)ncn1` ?
[out] 20.3

====

- experimental details: Pharmacokinetic measurements of H3B-6527 capsules in patients (trial NCT02834780), plasma LC-MS/MS
- Format: in vivo, human
- run conditions: human, plasma, oral, 1400 mg, 1400 mg QD, fasted, Day 8; Table 5, nominal times; read-out: Cmax, geometric mean (CV%)
measure: Cmax (ng/mL)
Answer in ng/mL, number only, no unit symbol.

[in] Endpoint output: Cmax of `C=CC(=O)Nc1cc(N2CCN(CC)CC2)ccc1Nc1cc(N(C)C(=O)Nc2c(Cl)c(OC)cc(OC)c2Cl)ncn1` . Value?
[out] 362

====

- experimental details: Pharmacokinetic measurements of H3B-6527 capsules in patients (trial NCT02834780), plasma LC-MS/MS
- Format: in vivo, human
- run conditions: human, plasma, oral, 500 mg, 500 mg BID, fasted, Day 1; Table 5, nominal times; read-out: Tmax, median (min-max)
measure: Tmax (h)
Respond with the bare value in h.

[in] State the recorded Tmax for this entry: `C=CC(=O)Nc1cc(N2CCN(CC)CC2)ccc1Nc1cc(N(C)C(=O)Nc2c(Cl)c(OC)cc(OC)c2Cl)ncn1`
[out] 2.75

====

- experimental details: Pharmacokinetic measurements of H3B-6527 capsules in patients (trial NCT02834780), plasma LC-MS/MS
- Format: in vivo, human
- run conditions: human, plasma, oral, 2000 mg, 2000 mg QD, fed, Day 8; Table 5, nominal times; read-out: Half-life, geometric mean (CV%) (converted)
measure: half-life (h)
Quick note: give the figure in h, leave out the unit.

[in] Any idea what half-life was measured for C=CC(=O)Nc1cc(N2CCN(CC)CC2)ccc1Nc1cc(N(C)C(=O)Nc2c(Cl)c(OC)cc(OC)c2Cl)ncn1 [H3B-6527] ?
[out] 5.7

====

- experimental details: Pharmacokinetic measurements of H3B-6527 capsules in patients (trial NCT02834780), plasma LC-MS/MS
- Format: in vivo, human
- run conditions: human, plasma, oral, 500 mg, 500 mg BID, fasted, Day 8; Table 5, nominal times; read-out: Cmax, geometric mean (CV%)
- Method: A description of the first in human clinical trial for H3B-6527 can be found at the ClinicalTrials.gov by searching for trial identifier NCT02834780. […] Blood samples are collected at the planned time points from each patient and centrifuged. […] The concentration data are then analyzed using Phoenix® WinNonlin software to obtain PK parameters. […]
measure: Cmax (ng/mL)
Give just the number in ng/mL; leave the unit off.

[in] Fill in the blank: the reported Cmax of C=CC(=O)Nc1cc(N2CCN(CC)CC2)ccc1Nc1cc(N(C)C(=O)Nc2c(Cl)c(OC)cc(OC)c2Cl)ncn1 [H3B-6527] is ____.
[out] 253

====

- experimental details: Pharmacokinetic measurements of H3B-6527 capsules in patients (trial NCT02834780), plasma LC-MS/MS
- Type: in vivo, human
- run conditions: human, plasma, oral, 1400 mg, 1400 mg QD, fasted, Day 8; Table 6, actual times after QC; read-out: Half-life, geometric mean (CV%) (converted)
measure: half-life (min)
Enter your answer as a number in min; do not include the unit.

[in] I would be grateful if you could share the reported half-life for `C=CC(=O)Nc1cc(N2CCN(CC)CC2)ccc1Nc1cc(N(C)C(=O)Nc2c(Cl)c(OC)cc(OC)c2Cl)ncn1` .
[out] 274

====

- experimental details: Pharmacokinetic measurements of H3B-6527 capsules in patients (trial NCT02834780), plasma LC-MS/MS
- Type: in vivo, human
- run conditions: human, plasma, oral, 1000 mg, 1000 mg QD, fed, Day 1; Table 5, nominal times; read-out: Cmax, geometric mean (CV%)
measure: Cmax (ng/mL)
Your answer should be a plain number; it is taken to be in ng/mL.

[in] I have this compound here, C=CC(=O)Nc1cc(N2CCN(CC)CC2)ccc1Nc1cc(N(C)C(=O)Nc2c(Cl)c(OC)cc(OC)c2Cl)ncn1 [H3B-6527] , and I need its recorded Cmax.
[out] 188

====

- experimental details: Pharmacokinetic measurements of H3B-6527 capsules in patients (trial NCT02834780), plasma LC-MS/MS
- Assay type: in vivo, human
- run conditions: human, plasma, oral, 500 mg, 500 mg BID, fed, Day 1; Table 6, actual times after QC; read-out: Half-life, geometric mean (CV%) (converted)
measure: half-life (h)
Note: unit h is implicit; provide only the numeric part.

[in] I have this compound here, C=CC(=O)Nc1cc(N2CCN(CC)CC2)ccc1Nc1cc(N(C)C(=O)Nc2c(Cl)c(OC)cc(OC)c2Cl)ncn1 [H3B-6527] , and I need its recorded half-life.
[out] 2.33

====

- experimental details: Pharmacokinetic measurements of H3B-6527 capsules in patients (trial NCT02834780), plasma LC-MS/MS
- Type: in vivo, human
- run conditions: human, plasma, oral, 600 mg, 600 mg QD, fasted, Day 1; Table 6, actual times after QC; read-out: AUC, geometric mean (CV%)
measure: AUC (ng·h/mL)
Just the number in ng·h/mL, nothing appended.

[in] Endpoint output: AUC of `C=CC(=O)Nc1cc(N2CCN(CC)CC2)ccc1Nc1cc(N(C)C(=O)Nc2c(Cl)c(OC)cc(OC)c2Cl)ncn1` . Value?
[out] 175

====

- experimental details: Pharmacokinetic measurements of H3B-6527 capsules in patients (trial NCT02834780), plasma LC-MS/MS
- Type: in vivo, human
- run conditions: human, plasma, oral, 300 mg, 300 mg QD, fasted, Day 1; Table 5, nominal times; read-out: Half-life, geometric mean (CV%) (converted)
measure: half-life

[in] Item `C=CC(=O)Nc1cc(N2CCN(CC)CC2)ccc1Nc1cc(N(C)C(=O)Nc2c(Cl)c(OC)cc(OC)c2Cl)ncn1` has what recorded half-life?
[out] 1.4 h

====

- experimental details: Pharmacokinetic measurements of H3B-6527 capsules in patients (trial NCT02834780), plasma LC-MS/MS
- Assay type: in vivo, human
- run conditions: human, plasma, oral, 2000 mg, 2000 mg QD, fed, Day 1; Table 5, nominal times; read-out: Half-life, geometric mean (CV%) (converted)
measure: half-life

[in] For the compound shown here, C=CC(=O)Nc1cc(N2CCN(CC)CC2)ccc1Nc1cc(N(C)C(=O)Nc2c(Cl)c(OC)cc(OC)c2Cl)ncn1 [H3B-6527] , give the reported half-life.
[out] 5.5 h

====

- experimental details: Pharmacokinetic measurements of H3B-6527 capsules in patients (trial NCT02834780), plasma LC-MS/MS
- Format: in vivo, human
- run conditions: human, plasma, oral, 300 mg, 300 mg QD, fasted, Day 8; Table 6, actual times after QC; read-out: AUC, geometric mean (CV%)
measure: AUC (ng·h/mL)
Kindly provide the numeric value in ng·h/mL only, without the unit symbol.

[in] // returns reported AUC for input `C=CC(=O)Nc1cc(N2CCN(CC)CC2)ccc1Nc1cc(N(C)C(=O)Nc2c(Cl)c(OC)cc(OC)c2Cl)ncn1`
[out] 53
